# Test system: S. cerevisiae SKN7-toxicity growth rescue, plate reader
# procedure text: Yeast SKN7 toxicity growth rescue counterscreen, Saccharomyces cerevisiae, plate reader, dose confirmatory (AID 624258);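 also: growth read after three days of incubation at 30 °C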
readout name: AC40

AC40 for O=C(CSc1ccc(-c2ccccn2)nn1)N1CCCc2ccccc21 ?
4.75 µM

Which AC40 is reported for this compound? c1cncc(-c2nnc(-c3cccnc3)nn2)c1
8.28 µM

Return reported AC40; argument: Cc1ccc(NC(=O)CN(C)C(=O)c2cccnc2Nc2cccc(C(F)(F)F)c2)cc1
5.69 µM

Look up AC40: CCCc1cc(-c2n[nH]c(=S)n2-c2cccc(C)c2)cs1
17 µM

Recorded AC40 for O=C(N[C@@H](Cc1ccccc1)C(=O)CCl)OCc1ccccc1 , please?
1.14 µM

Consider the compound shown here: Cc1cc([N+](=O)[O-])cc(/C=N/n2c(C)nc3ccccc3c2=O)c1O What is its recorded AC40?
4.24 µM

Need AC40 of O=c1[nH]c(=O)n(C2OC(CO)C(O)C2O)cc1F (stereo not given) , thanks.
12.9 µM

Requested read-out: AC40. Entry: C[C@@]12C(=O)Nc3ccc(F)cc3C(=O)N1[C@H]1c3ccccc3OC[C@@H]1[C@@H]2c1ccccc1
11.5 µM

For CSc1nccc(NC(=O)c2ccc(C(C)(C)C)cc2)n1 , what is its reported AC40?
7.82 µM

Would you mind telling me what AC40 value was observed for C/C(CC(=O)Nc1ccccn1)=N\NC(=O)c1ccccc1O ?
5.11 µM

AC40 for O=C1C=C(Nc2ccccc2O)c2ccccc2C1=O ?
12.6 µM

AC40 for Nc1[nH]c(=O)ncc1F ?
1.83 µM

Given the entry CCOC(=O)c1ccc(NC(=O)CC2C(=O)OCCN2CC)cc1 (stereo not given) , report its measured AC40.
4.89 µM

Which value of AC40 has been reported for O=C1c2ccccc2C2=Nc3ccccc3SC(c3cccc(F)c3)C12 (stereo not given) in the records?
1.24 µM

Which AC40 value belongs to Cc1cc(F)ccc1S(=O)(=O)N(C(=O)c1ccncc1)c1ccc(OC(=O)c2ccncc2)cc1 ?
2.42 µM

Which AC40 is listed for O=C1CC(N2CCCCCC2)C(=O)N1c1ccc2c(c1)OCO2 (stereo not given) ?
6.75 µM

# get_value(readout='AC40', item= C=CS(=O)(=O)c1sc(Cl)c(N2CCOCC2)c1[N+](=O)[O-] )
0.653 µM

Entry CCc1oc2ccccc2c1C(=O)c1cc(Br)c(O)c(Br)c1 : reported AC40 = ?
0.912 µM

I am curious: what AC40 value has been reported for COc1ccc(OC)c2c1C(=O)C(Cl)=C(Cl)C2=O ?
0.66 µM

Fill blank: measured AC40 of the compound O=C(Oc1cc2oc(=O)cc(-c3ccccc3)c2cc1Cl)C1CCCCC1 is ____.
8.04 µM

###

# Tested on: S. cerevisiae SKN7-toxicity growth rescue, plate reader
# procedure text: Yeast SKN7 toxicity growth rescue counterscreen, Saccharomyces cerevisiae, plate reader, dose confirmatory (AID 624258);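 also: growth read after three days of incubation at 30 °C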
Activity calls are given as the source filed them. How the calls were made is not given here.
Bench note: report the call from active, inactive

// param item: O=c1[nH]cc(F)c(=O)[nH]1 ; yields the recorded call
active

For this molecule, state the assay outcome: S=C(NCCCc1ccccc1)Nc1ccc(Br)cc1
active

GET /call?item= CCCNC(=O)c1ccc2c(=O)c(O)c(-c3ccc(F)cc3)[nH]c2c1 returns the recorded outcome of this test.
active

I'd appreciate the recorded outcome for Cc1onc(-c2c(Cl)cccc2Cl)c1C(=O)N/N=C(\N)COc1ccc(Cl)cc1 from this test.
active

Hi team, can someone confirm the assay call for O=C(O)c1cccc(NN=C2c3ccccc3-c3ccccc32)c1 ?
active

Which outcome was assigned to COc1ccc(-c2cc(C(=O)N3CCN(c4ccccc4F)CC3)c3ccccc3n2)c(OC)c1 in this test?
inactive

For this molecule, state the assay outcome: Cn1cnc([N+](=O)[O-])c1S(=O)(=O)Oc1ccc(Cl)cc1
active

Give the logged outcome of this assay for the following molecule: COc1ccc(-c2csc(NC(=O)c3ccccc3F)c2C(=O)O)cc1
active

What did this assay record as the result for O=C1c2ccccc2C(=O)c2c1oc(C(F)(F)F)c2C(=O)c1ccccc1 ?
active

Fill in: this test's call for CC/C(=N\Nc1ccc([N+](=O)[O-])cc1)c1ccccc1 is ___
active

In this assay, the call recorded for COc1ccc(N2C(=O)C(Cl)=C(Nc3ccccc3O)C2=O)cc1 was what?
active

What was the test verdict on CC(C)CN=Cc1c(O)c([N+](=O)[O-])cc2oc3c(c12)CCCC3 ?
active

Could you check what this test reported for O=C1/C(=C/c2cccs2)SC(=S)N1NS(=O)(=O)c1ccccc1 ?
active

So what was the verdict on Cc1cccc2sc(NNC(=O)c3ccc(S(=O)(=O)N4CC(C)CC(C)C4)cc3)nc12 (configuration not stated) in this test?
active

// param item: CC(C)(C)C(=O)C(Cl)C(=O)Nc1ccccc1 (configuration not stated) ; yields the recorded call
active

For Cc1onc(-c2ccccc2)c1C(=O)NC(=S)NNC(=O)c1cc(-c2ccc(F)cc2)n[nH]1 , what call appears in the results of this test?
active

Per the assay record, what outcome was assigned to O=S(=O)(Nc1nc2ccccc2nc1N1CCN(c2ccccn2)CC1)c1ccc(Cl)cc1 ?
active

Assay outcome for O=C(N/N=C/c1cc(Br)ccc1O)c1ccccc1Cl : what was it?
active

Tell me the recorded outcome of this test for Cc1ccc(Sc2ccc([N+](=O)[O-])cc2[N+](=O)[O-])nc1 .
active

Status in this test for Cc1nc2c(nc1C)C(=O)c1ccccc1C2=O ?
active

How did this test come out for O=c1c2c(-c3ccc(Cl)cc3)csc2ncn1/N=C/c1cccc([N+](=O)[O-])c1O ?
active

Query: recorded result category for c1c[nH]c(CN2CCN(Cc3ncc[nH]3)CC2)n1 in this test
active

###

# Tested on: S. cerevisiae SKN7-toxicity growth rescue, plate reader
# procedure text: Yeast SKN7 toxicity growth rescue counterscreen, Saccharomyces cerevisiae, plate reader, dose confirmatory (AID 624258);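 also: growth read after three days of incubation at 30 °C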
readout name: AC40

Fill in the blank: the reported AC40 of Clc1cccc(CON/C=N/c2ncnc3sccc23)c1 is ____.
3.8 µM

I am curious: what AC40 value has been reported for N#C/C(=C\c1cccnc1)c1ccc(Br)cc1 ?
15.9 µM

What value of measured AC40 is listed for S=C1SCN(Cc2cccnc2)CN1Cc1cccnc1 ?
1.01 µM

Dear colleague, I am looking for the recorded AC40 of the following compound: O=C(CSc1nc2ccccc2s1)N/N=C/c1cc([N+](=O)[O-])ccc1O
3.97 µM

// lookup AC40 for COc1cccc(/C=N/Nc2ncnc(Cl)c2N)c1O
3.72 µM

// AC40 lookup, key: CCCOc1ccc(C(=O)NNC(=S)NC(=O)CC)cc1
1.48 µM

###

# System: S. cerevisiae SKN7-toxicity growth rescue, plate reader
# procedure text: Yeast SKN7 toxicity growth rescue counterscreen, Saccharomyces cerevisiae, plate reader, dose confirmatory (AID 624258);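 also: growth read after three days of incubation at 30 °C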
Activity calls are given as the source filed them. No rule for the calls is given here.
Respond using exactly one of the listed classes: True (active), False (inactive)

Assay outcome for Cc1ccc(CN2CC(C(=O)N(Cc3nnc(-c4ccccc4Cl)o3)C3CC3)CC2=O)cc1 (centres undefined) : what was it?
True

Could you please tell me the result logged for CC(C)n1cnc2c(NCc3ccccc3)cc(Cc3ccc(F)cc3)cc21 in this assay?
True

Test call, this compound: C(=N\NC1=Nc2cccc3cccc1c23)/c1ccccn1
True

Hi team, can someone confirm the assay call for CCCCCCCN1N=C(C)C(C(=O)c2ccccc2)C1=O (centres undefined) ?
True

Name the outcome recorded for Cc1cccc(C)c1N=Nc1c(C)cc(O)cc1C in the assay.
True

Outcome? O=[N+]([O-])c1cc(C(F)(F)F)ccc1NCCc1c[nH]c2ccc(O)cc12
True

# outcome recorded in this test, key = Cc1cc2[nH]c3c4ccccc4nc(C)c3c2cc1C
True

Outcome? Cc1nnc(N=c2ssnc2Cl)o1
True

What classification did O=C(CSc1nnc(-c2ccccc2O)n1Cc1ccccc1)NNC(=O)c1ccccc1O end up with in this test?
True

Test call, this compound: Cc1cc(Cl)ccc1OCC(=O)NCCCCc1ccccc1
True

Please indicate how the test categorized O=C(C1CC2C=CC1C2)N1CCN(c2ccccc2)CC1 (centres undefined) .
True

Record lookup: outcome of this test for Cc1cc(C)c(C(N)=O)c(Nc2cccc3ccccc23)n1 ?
False

Answer briefly: the call reported for O=C1C(=C(I)I)c2ccccc2-c2ccccc21 in this assay.
True

Returns: the outcome recorded for COc1ccc2cnn(CCOc3cc(C)ccc3C(C)C)c(=O)c2c1OC in this assay.
True

What did this assay record as the result for C(=N\Nc1nncc2ccccc12)/c1ccccn1 ?
True

Test call for this compound, please: O=C(Nc1ccccc1N1CCOCC1)c1cc2c(s1)CCCCC2
True

What classification did COc1cc(NC(=O)CSc2ccc(-c3ccccn3)nn2)cc(OC)c1 end up with in this test?
True

What did this assay record as the result for COc1ccccc1-c1cc(C(F)(F)F)nc(S(C)(=O)=O)n1 ?
True

Query: recorded result category for CC(=O)Nc1ccc2c(c1)Cc1cc(N3C(=O)C=CC3=O)ccc1-2 in this test
True

Call for entry Cc1cccc(C)c1NC(=O)c1nc(S(=O)(=O)Cc2ccccc2)ncc1Cl :
True

What did the test return for COc1cccc(/C=N/NC(=O)c2cc(-c3cccn3C)n[nH]2)c1O ?
True

How was Cc1ccnc(N2C(=O)c3cccc4c([N+](=O)[O-])ccc(c34)C2=O)c1 classified in this test?
True

Fill in: this test's call for CCc1cc(C(N)=O)c(NC(=O)c2ccc(OC)cc2)s1 is ___
True

For this compound, state the assay outcome: Cc1nn(-c2nnc(NCc3ccccc3)nn2)c(C)c1Br
True
